Reference source for all entries: patent US10034886B2

Kindly supply the reported EC50 values for the records listed here.
Target: GLP-1R (Homo sapiens, UniProt P43220)
Construct: host or cells: GLP-1R CRE-bla CHO-K1 cells
Sequence (P43220 24-463): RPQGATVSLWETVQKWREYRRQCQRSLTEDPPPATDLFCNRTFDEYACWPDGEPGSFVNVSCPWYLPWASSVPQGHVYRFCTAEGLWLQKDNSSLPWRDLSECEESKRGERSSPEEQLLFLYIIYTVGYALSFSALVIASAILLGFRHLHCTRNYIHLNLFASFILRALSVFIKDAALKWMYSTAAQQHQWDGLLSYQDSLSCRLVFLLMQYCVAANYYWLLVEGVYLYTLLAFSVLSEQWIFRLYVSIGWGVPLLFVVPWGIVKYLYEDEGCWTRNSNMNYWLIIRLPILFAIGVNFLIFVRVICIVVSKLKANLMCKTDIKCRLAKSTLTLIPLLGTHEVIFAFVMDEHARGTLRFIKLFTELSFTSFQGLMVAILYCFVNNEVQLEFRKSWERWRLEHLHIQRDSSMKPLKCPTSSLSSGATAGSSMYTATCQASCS
Sequence (P01275 100-127 partner limits assumed): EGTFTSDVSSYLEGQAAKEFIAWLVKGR
Assay: EC20 GLP-1(9-36) PAM cAMP assay: dose response of compound in the presence of fixed concentration of GLP-1(9-36)
Assay type: cell-based
Conditions: dose response of compound in presence of fixed concentration of GLP-1(9-36), GLP-1R CRE-bla CHO-K1 cells, read-out: EC20 GLP-1(9-36) PAM EC50

Read off the recorded EC50 for CCCCCCCOc1ccc(-c2cnc(-c3ccc(C[C@H](NC(=O)c4ccc(C(C)(C)C)cc4)C(=O)NC(CCCC)C(=O)O)cc3)nc2)cc1 (stereo partly drawn)
800 to 2500 nM

Read off the recorded EC50 for `CC(C)(C)c1ccc(C(=O)N[C@@H](Cc2ccc(-c3ncc(-c4ccc(-c5ccccc5)cc4)cn3)cc2)C(=O)N2CCC[C@H]2C(=O)O)s1`
< 800 nM

Read off the recorded EC50 for CCCCCCCOc1ccc(-c2cnc(-c3ccc(C[C@H](NC(=O)c4ccc(C(C)(C)C)s4)C(=O)NC(C(=O)O)C(O)C(C)C)cc3)nc2)cc1 (stereo partly drawn)
< 800 nM

Read off the recorded EC50 for `CCCCOc1ccc(-c2cnc(-c3ccc(C[C@H](NC(=O)c4ccc(C(C)(C)C)s4)C(=O)N[C@H](C)C(=O)O)cc3)nc2)cc1`
800 to 2500 nM

Read off the recorded EC50 for `CCCCOc1ccc(-c2cnc(-c3ccc(C[C@H](NC(=O)c4ccc(C(C)(C)C)s4)C(=O)N4CC(C(=O)O)C4)cc3)nc2)cc1`
800 to 2500 nM

Read off the recorded EC50 for `CCCCCCCOc1ccc(-c2cnc(-c3ccc(C[C@H](NC(=O)c4ccc(C(C)(C)C)s4)C(=O)N[C@@H](CCN)C(=O)O)cc3)nc2)cc1`
800 to 2500 nM

* * *

Target: GLP-1R (Homo sapiens, UniProt P43220)
Construct: host or cells: GLP-1R CRE-bla CHO-K1 cells
Assay: EC20 GLP-1(9-36) PAM cAMP assay: dose response of compound in the presence of fixed concentration of GLP-1(9-36)
Assay type: cell-based
Settings: dose response of compound in presence of fixed concentration of GLP-1(9-36), GLP-1R CRE-bla CHO-K1 cells, read-out: EC20 GLP-1(9-36) PAM EC50
MEASURED QUANTITY: EC50

Read off the recorded EC50 for `CCCCCCCOc1ccc(-c2cnc(-c3ccc(C[C@H](NC(=O)c4ccc(C(C)(C)C)s4)C(=O)N[C@@H](Cn4cccn4)C(=O)O)cc3)nc2)cc1`
< 0.8 µM

Read off the recorded EC50 for CCCCCCCOc1ccc(-c2cnc(-c3ccc(C[C@H](NC(=O)c4ccc(C(C)(C)C)s4)C(=O)NC(C(=O)O)C(O)c4cccs4)cc3)nc2)cc1 (stereo partly drawn)
0.8 to 2.5 µM

Read off the recorded EC50 for CC(C)(C)c1ccc(C(=O)N[C@@H](Cc2ccc(-c3ncc(-c4ccc(OCC5CCC(C(C)(C)C)CC5)cc4)cn3)cc2)C(=O)NCCC(=O)O)cc1 (stereo partly drawn)
0.8 to 2.5 µM

Read off the recorded EC50 for `CCCCCCOc1ccc(-c2ccc(-c3ccc(C[C@H](NC(=O)c4ccc(C(C)(C)C)cc4)C(=O)O)cc3)cn2)cc1`
2.5 to 5 µM

Read off the recorded EC50 for `CCCCCCCOc1ccc(-c2cnc(-c3ccc(C[C@H](NC(=O)c4ccc(C(C)(C)C)s4)C(=O)N[C@@H](C(=O)O)[C@H](C)CC)cc3)nc2)cc1`
< 0.8 µM

Read off the recorded EC50 for CCCCCCCOc1ccc(-c2cnc(-c3ccc(C[C@H](NC(=O)c4ccc(C(C)(C)C)s4)C(=O)NC(C(=O)O)[C@@H](O)c4ccccc4)cc3)nc2)cc1 (stereo partly drawn)
< 0.8 µM

* * *

Molecular target: GLP-1R (Homo sapiens, UniProt P43220)
Construct: host or cells: GLP-1R CRE-bla CHO-K1 cells
Experiment: EC20 GLP-1(9-36) PAM cAMP assay: dose response of compound in the presence of fixed concentration of GLP-1(9-36)
Assay type: cell-based
Details: GLP-1R CRE-bla CHO-K1 cells, compound dose response with fixed concentration of GLP-1(9-36), read-out: EC20 GLP-1(9-36) PAM EC50
MEASURED QUANTITY: EC50

Read off the recorded EC50 for `C[C@@H](NC(=O)[C@H](Cc1ccc(-c2ncc(-c3ccc(C4CC4)cc3)cn2)cc1)NC(=O)c1ccc(C(C)(C)C)s1)C(=O)O`
800 to 2500 nM

Read off the recorded EC50 for `CC(C)(C)c1ccc(C(=O)N[C@@H](Cc2ccc(-c3ncc(N4CCC(C5CCCCC5)CC4)cn3)cc2)C(=O)N2CC(C(=O)O)C2)s1`
< 800 nM

Read off the recorded EC50 for `CC(C)CCCOc1ccc(-c2cnc(-c3ccc(C[C@H](NC(=O)c4ccc(CC(C)C)cc4)C(=O)N4CC(C(=O)O)C4)cc3)nc2)cc1`
800 to 2500 nM

Read off the recorded EC50 for CCC[C@H]1CC[C@H](C2CCN(c3cnc(-c4ccc(CC(NC(=O)c5ccc(C(C)(C)C)s5)C(=O)NS(=O)(=O)CCNC(=O)OC(C)(C)C)cc4)nc3)CC2)CC1 (some centres unmarked)
< 800 nM

Read off the recorded EC50 for `CCC[C@H]1CC[C@H](C2CCN(c3cnc(-c4ccc(C[C@H](NC(=O)c5ccc(C(C)(C)C#N)cc5)C(=O)N5CC(C(=O)O)C5)cc4)nc3)CC2)CC1`
< 800 nM

Read off the recorded EC50 for CCOc1ccc(C2CCN(c3cnc(-c4ccc(CC(NC(=O)c5ccc(C(C)(C)C)s5)C(=O)N5CC(C(=O)O)C5)cc4)nc3)CC2)cc1 (centres unmarked)
800 to 2500 nM

Read off the recorded EC50 for `CCCc1ccc(-c2ccc(-c3cnc(-c4ccc(C[C@H](NC(=O)c5ccc(C(C)C)cc5)C(=O)N5CC(C(=O)O)C5)cc4)nc3)c(F)c2)cc1`
< 800 nM

Read off the recorded EC50 for `CC(C)(C)c1ccc(C(=O)N[C@@H](Cc2ccc(-c3ncc(N4CCC(c5cccc(C(F)(F)F)c5)CC4)cn3)cc2)C(=O)N2CC(C(=O)O)C2)s1`
800 to 2500 nM

Read off the recorded EC50 for `CCc1ccc(C(=O)N[C@@H](Cc2ccc(-c3ncc(-c4ccc([C@H]5CC[C@H](CC)CC5)cc4)cn3)cc2)C(=O)O)cn1`
5000 to 10000 nM

Read off the recorded EC50 for `COc1cc(C(=O)N[C@@H](Cc2ccc(-c3ncc(-c4ccc(OCCCC(C)C)cc4)cn3)cc2)C(=O)N2CC(C(=O)O)C2)ccc1C(C)(C)C`
800 to 2500 nM

Read off the recorded EC50 for CCC[C@H]1CC[C@H](C2CCN(c3cnc(-c4ccc(CC(NC(=O)c5ccc(C(C)(C)C)s5)C(=O)NS(=O)(=O)CCOC)cc4)nc3)CC2)CC1 (some centres unmarked)
< 800 nM

* * *

Biological target: GLP-1R (Homo sapiens)
Construct: host or cells: GLP-1R CRE-bla CHO-K1 cells
Test: EC20 GLP-1(9-36) PAM cAMP assay: dose response of compound in the presence of fixed concentration of GLP-1(9-36)
Assay type: cell-based
Conditions: GLP-1R CRE-bla CHO-K1 cells, compound dose response with fixed concentration of GLP-1(9-36), read-out: EC20 GLP-1(9-36) PAM EC50
pEC50: −log10 of the molar value.
MEASURED QUANTITY: pEC50

Read off the recorded pEC50 for CC[C@H]1CC[C@H](c2ccc(-c3cnc(-c4ccc(C[C@H](NC(=O)c5ccc(C(C)(C)C)nc5)C(=O)O)cc4)nc3)cc2)CC1 [Compound 1367]
> 6.10

Read off the recorded pEC50 for CCC(C)(C)c1ccc(C(=O)N[C@@H](Cc2ccc(-c3ncc(-c4ccc([C@H]5CC[C@H](CC)CC5)cc4)cn3)cc2)C(=O)O)cc1 [Compound 1375]
5.60 to 6.10

Read off the recorded pEC50 for CCC[C@H]1CC[C@H](C2CCN(c3cnc(-c4ccc(C[C@H](NC(=O)c5ccc(C(C)(C)C)s5)C(=O)N[C@H](CC(C)C)C(=O)O)cc4)nc3)CC2)CC1 [Compound 1462]
5.60 to 6.10

Read off the recorded pEC50 for C[C@@H](NC(=O)[C@H](Cc1ccc(-c2ncc(/C=C/c3ccc(F)cc3F)cn2)cc1)NC(=O)c1ccc(C(C)(C)C)s1)C(=O)O [Compound 1255]
5.30 to 5.60

Read off the recorded pEC50 for Cc1ccccc1C1CCN(c2cnc(-c3ccc(C[C@H](NC(=O)c4ccc(C(C)(C)C)s4)C(=O)N4CC(C(=O)O)C4)cc3)nc2)CC1 [Compound 1475]
> 6.10

Read off the recorded pEC50 for C[C@@H](NC(=O)[C@H](Cc1ccc(-c2ncc(/C=C/c3ccc(F)cc3)cn2)cc1)NC(=O)c1ccc(C(C)(C)C)s1)C(=O)O [Compound 1249]
5.30 to 5.60

Read off the recorded pEC50 for CC[C@H]1CC[C@H](c2ccc(-c3cnc(-c4ccc(C[C@H](NC(=O)c5ccc(N(C)C)cc5)C(=O)O)cc4)nc3)cc2)CC1 [Compound 1380]
5.60 to 6.10

Read off the recorded pEC50 for CCC[C@H]1CC[C@H](C2CCN(c3cnc(-c4ccc(C[C@H](NC(=O)c5ccc(C(C)(C)C)s5)C(=O)N[C@H](CC(N)=O)C(=O)O)cc4)nc3)CC2)CC1 [Compound 1460]
> 6.10

Read off the recorded pEC50 for CC[C@H]1CC[C@H](c2ccc(-c3ccc(-c4ccc(C[C@H](NC(=O)c5ccc(C(C)(C)C)s5)C(=O)N5CC(C(=O)O)C5)cc4)cn3)cc2)CC1 [Compound 1341]
> 6.10

Read off the recorded pEC50 for CC[C@H]1CC[C@H](c2ccc(-c3ccc(-c4ccc(C[C@H](NC(=O)c5ccc(C(C)(C)C)s5)C(=O)N5CC(C(=O)O)C5)cc4)nc3)cc2)CC1 [Compound 1334]
> 6.10

Read off the recorded pEC50 for CCCc1ccc(C2CCN(c3cnc(-c4ccc(C[C@H](NC(=O)c5ccc(C(C)(C)C)s5)C(=O)N5CC(C(=O)O)C5)cc4)nc3)CC2)cc1 [Compound 1432]
> 6.10
